system: gastric acid secretion; experiment: Acute Gastric Fistula, Rat: inhibition of gastric acid secretion (Total Acid Output); format: in vivo, Female Sprague-Dawley rats; conditions: po, 1 h, one hour prior to surgery, dose for average 50% inhibition in Total Acid Output versus controls, collection at one hour
readout-kind: log10 ED50 (log10 of the value in mg/kg)
// stored as log10 of ED50 expressed in mg/kg

Some entries whose results are on file:
[
  {
    "compound": "CC(=O)CCCCCCCCN=CN1CCC(C(c2ccccc2)c2ccccc2)CC1 [Example 5]",
    "recorded-measurement": 0.68
  },
  {
    "compound": "CC1(CCCCCCN=CN2CCC(C(c3ccccc3)c3ccccc3)CC2)OCCO1 [Example 1]",
    "recorded-measurement": 0.50
  }
]

For the compound CC(=O)CCCCCCN=CN1CCC(C(c2ccccc2)c2ccccc2)CC1 [Example 2] , give its measured log10 ED50 value.
1.17

For the compound CC(CCCCCCN=CN1CCC(C(c2ccccc2)c2ccccc2)CC1)=NO [Example 4] , give its measured log10 ED50 value.
1.09

For the compound CC(O)CCCCCCN=CN1CCC(C(c2ccccc2)c2ccccc2)CC1 (stereo not drawn) [Example 3] , give its measured log10 ED50 value.
1.89

For the compound CC(=O)CN=CN1CCC(C(c2ccccc2)c2ccccc2)CC1 [Example 6] , give its measured log10 ED50 value.
0.78
